- Test Details: in vitro
- Condition Parameters: mouse, plasma
Observation Type: remaining at 40 min, 1 µM (%)
The response must be a number in % with no trailing unit.

> print(dat)
                                   molecule           observation.type  measurement
1  COC(=O)[C@@](C)(NC(=O)c1cc(C)n(-c2cccc(C(F)(F)F)c2)n1)c1cccs1 [‘1350]  remaining at 40 min, 1 µM           66

Which value of remaining at 40 min, 1 µM has been reported for CC(C)[N+](C)(CCOC(=O)C1c2ccccc2Oc2ccccc21)C(C)C [Propantheline, reference compound] in the records?
50

====

// reported rep2_displacement per item
- Tested Target: CB1 (rCB1) (Rattus norvegicus)
- Sequence (P20272 whole entry): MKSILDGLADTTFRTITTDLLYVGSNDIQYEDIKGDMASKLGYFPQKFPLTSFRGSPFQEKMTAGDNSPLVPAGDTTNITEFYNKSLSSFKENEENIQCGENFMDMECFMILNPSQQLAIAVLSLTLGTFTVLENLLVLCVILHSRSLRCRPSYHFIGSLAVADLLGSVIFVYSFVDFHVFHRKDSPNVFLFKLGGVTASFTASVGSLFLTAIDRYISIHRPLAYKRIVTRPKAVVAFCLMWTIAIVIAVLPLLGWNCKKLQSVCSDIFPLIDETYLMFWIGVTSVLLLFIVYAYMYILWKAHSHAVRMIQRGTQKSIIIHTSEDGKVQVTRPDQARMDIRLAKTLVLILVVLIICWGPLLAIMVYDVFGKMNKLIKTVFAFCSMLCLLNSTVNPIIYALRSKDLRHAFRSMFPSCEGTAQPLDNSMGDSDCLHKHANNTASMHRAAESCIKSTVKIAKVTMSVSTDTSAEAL
- Test Details: Single-point radioligand displacement screen
- Type: binding
- Condition Parameters: Figure 1c source data, replicate 2

Consider the worked cases shown below.
> print(dat)
                                   molecule   observation.type  measurement
1  CC1C(C(F)(F)F)CCN1C(=O)c1csc(N(C)c2ccccc2)n1 (stereo not drawn) [compound 27005]  rep2_displacement         30.7
2  CCCCCCC1(c2cc(O)c3c(c2)OC(C)(C)[C@@H]2CC[C@@H](O)C[C@@H]32)CCC1 [AM2389, reference compound]  rep2_displacement         99.9
3  O=C(OCc1ccc(Cl)cc1-n1cncn1)c1ccnc(OC2CCC2)c1 [compound 91451]  rep2_displacement         20.4
4  O=C(OCc1nc2ccccc2s1)c1c2c(nc3ccccc13)CCC2 [compound 47700]  rep2_displacement         33.4
5  Cn1cc2c(n1)CCCC2c1nc(C2(c3cccc(C(F)(F)F)c3)CC2)no1 (stereo not drawn) [compound 18525]  rep2_displacement         46.2
6  N#CCCn1ncc(C(=O)N2CCC(F)(c3cc(F)cc(F)c3)C2)c1-c1ccccc1 (stereo not drawn) [compound 34734]  rep2_displacement         10.3
7  O=C1Cc2cc(-c3csc(Cc4ccc(F)cc4)n3)cc3c2N1CCC3 [‘1038]  rep2_displacement         51.4
8  COc1cc(C(=O)OCC2CCCN2c2ccc(C)nn2)ccc1Cl (stereo not drawn) [compound 65703]  rep2_displacement         18.4

// returns reported rep2_displacement for input O=C1CN(C(=O)c2ccc(Cl)c3cccnc23)CN1Cc1ccccc1 [compound 14861]
15.3

// lookup rep2_displacement for O=c1ccc(-c2nc(C(F)(F)c3ccc(F)cc3)no2)nn1-c1ccc(F)cc1 [‘2443]
54.3

What does the data say about its rep2_displacement? Entry: Cn1ncc2c(N3CCC(COCc4ccccc4)C3)nc(Cl)nc21 (stereo not drawn) [compound 66978]
-21.7

Which rep2_displacement is listed for COCCOc1cc(C(=O)N2CCCC(CC3CCOC3)C2)nc2ccccc12 (stereo not drawn) [compound 49667] ?
4.1

Param item = CCCC1CN(C(=O)c2cc(Oc3cccc(Br)c3)ccn2)CCO1 (stereo not drawn) [compound 83628] ; retrieve measured rep2_displacement.
14.4

Request the reported rep2_displacement associated with Fc1ccc(C(F)(F)c2noc(-c3cnnn3-c3cccc(F)c3)n2)cc1 [compound 9217]
46.4

Entry CN(CCOc1ccc(Br)cc1)c1ncnc(-c2ccccc2)n1 [compound 55901] has what rep2_displacement?
26.2

Consider the molecule COc1cccc(C2(C)CCN(C(=O)CC34CCCCC3C4(F)F)C2)c1 (stereo not drawn) [‘7218] and give its measured rep2_displacement.
33

Record request: rep2_displacement value, item C=CCn1c(SC(C)COC)nc2cc(-c3ccccc3)sc2c1=O (stereo not drawn) [compound 50746]
26.8

Dear colleague, I am looking for the recorded rep2_displacement of the following molecule: COc1cc(OC)cc(-c2nc([C@H](OC)c3ccc(Br)cc3)no2)c1 [compound 13596]
49
